ASSAY_PROTOCOL: chemical genetic growth profiling, strain panel (AID 1159580);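 further: tested at 20 µM; growth read once vehicle control cultures reached saturation at 30 °C; 1 = growth at the plate median or of vehicle wells; lower values mean less growth of the strain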
COND: S. cerevisiae deletion strains, growth OD, locus YNL298W, strain CLA4
Out of some 5,500 compounds screened, about 2,000 (36%) were called active. Another 18% or so got no clear call; they are omitted. No stated cut-off is given here; in the data, active means normalized growth mostly below about 0.91 (no sharp cut-off); inconclusive means no clear call, values can overlap the other calls; inactive means mostly above about 0.92. Some of the results follow.
Classes used: yes (1) = active, no (0) = inactive

- NC(=O)c1cnccn1: no (0)
- CCOP(=S)(OCC)SCSP(=S)(OCC)OCC: no (0)
- CC[C@@]1(C2O[C@@H](C3O[C@@](O)(CC)[C@H](C)C[C@@H]3C)C[C@@H]2C)CC[C@H]([C@]2(C)CCC3(C[C@H](O)[C@@H](C)[C@@H]([C@H](C)[C@@H](OC)[C@H](C)C(=O)O)O3)O2)O1 (stereo partly specified): no (0)
- CC1CC2C(C(O)CC3(C)C2CCC3(O)C(=O)COC(=O)CCC(=O)O)C2(C)C=CC(=O)C=C12 (stereo unspecified): no (0)
- CC(COc1ccccc1)N(CCCl)Cc1ccccc1 (stereo unspecified): no (0)
- CCOP(=S)(OCC)SCCSCC: no (0)
- NC(=O)N/N=C\c1ccc([N+](=O)[O-])o1: no (0)
- O=C1OCCN1/N=C\c1ccc([N+](=O)[O-])o1: no (0)
- C=CC1=C(C)/C(=C/c2[nH]c(Cc3[nH]c(/C=C4\NC(=O)C(C)=C4C=C)c(C)c3CCC(=O)O)c(CCC(=O)O)c2C)NC1=O: no (0)
- c1cc2c(cc1[C@H]1OC[C@H]3[C@@H]1CO[C@H]3c1ccc3c(c1)OCO3)OCO2: no (0)
- CC(=O)C1=C(O)C2C3c4c[nH]c5cccc(c45)CC3C(C)(C)N2C1=O (stereo unspecified): no (0)
- C=CCc1cc(OC)c2c(c1OC)OCO2: no (0)
- C[C@@H]1CC2C3CCC4=CC(=O)C=C[C@]4(C)[C@@]3(F)[C@@H](O)C[C@]2(C)[C@@]1(O)C(=O)COP(=O)(O)O (stereo partly specified): no (0)
- Cc1cccc(CN2CCN(C(c3ccccc3)c3ccc(Cl)cc3)CC2)c1 (stereo unspecified): no (0)
- CCOC(N)=O: no (0)
- CCn1cc(C(=O)O)c(=O)c2ccc(C)nc21: yes (1)
- O=C1CN(/N=C\c2ccc([N+](=O)[O-])o2)C(=O)N1: no (0)
- CCOP(=S)(OCC)SCSCC: no (0)
- CC1=CC(=O)CC(C)(C)C1(O)/C=C/C(C)=C\C(=O)O (stereo unspecified): no (0)
- O=C1N=C(O)CN1/N=C\c1ccc(-c2ccc([N+](=O)[O-])cc2)o1: no (0)
- COc1cc(C(=O)O)c(O)c2c1OCO2: no (0)
- O=C(O)CCC(=O)c1ccc(-c2ccccc2)cc1: yes (1)
- COc1ccc(C[C@H](N)C(=O)N[C@@H]2[C@@H](CO)OC(n3cnc4c(N(C)C)ncnc43)[C@@H]2O)cc1 (stereo partly specified): no (0)
- CO[C@@H]1[C@@H](O[C@@H]2O[C@H](C)[C@@H](O[C@H]3C[C@@](C)(O)[C@H](O)[C@H](C)O3)[C@H](N(C)C)[C@H]2O)[C@@H](CC=O)C[C@@H](C)[C@@H](O[C@H]2CC[C@H](N(C)C)[C@@H](C)O2)/C=C/C=C/C[C@H](C)OC(=O)C[C@H]1O: no (0)
- C#C[C@]1(O)CCC2C3CCc4cc(O)ccc4C3CC[C@@]21C (stereo partly specified): no (0)
- COc1ccccc1N1CCNCC1: no (0)
- O=C(/C=C/c1ccc(O)c(O)c1)O[C@@H]1C[C@](O)(C(=O)O)C[C@@H](O)[C@H]1O: no (0)
- CCCCC(CC)CN=C(N)NC(N)=NCCCCCCN=C(N)NC(N)=NCC(CC)CCCC (stereo unspecified): yes (1)
- Oc1ccc(/C=C/c2cc(O)cc(O)c2)cc1: no (0)
- CCn1cc(C(=O)O)c(=O)c2cc3c(cc21)OCO3: no (0)
- C[C@H](COc1ccccc1)N[C@H](C)[C@H](O)c1ccc(O)cc1: no (0)

# credit: PubChem BioAssay AID1159580
